From: PubChem BioAssay (NCI)

- assayRemarks: NCI Yeast Anticancer Drug Screen. Data for the mgt1 strain (AID 153)
- particulars: S. cerevisiae mgt1 mutant growth inhibition; at 1.2 µM; active compounds read high
Compounds without any hit were thinned out: in the full panel of roughly 79,000, 15% have a hit.
Give measured growth inhibition for each item. Keep answers brief.
Give bare numbers, in %.

{"compound": "O=C(NOC(=O)c1ccc([N+](=O)[O-])cc1)c1ccc(Cl)cc1", "resultUnit": "%", "growth inhibition": -58}
{"compound": "CCC(=O)C1=C(O)c2cc(OC)ccc2CC1C(=O)OC (stereo not given)", "resultUnit": "%", "growth inhibition": -2}
{"compound": "O=S(=O)(NNc1ccccc1)c1ccccc1", "resultUnit": "%", "growth inhibition": -3}
{"compound": "CCOC(=O)C(Cc1c2ccccc2cc2ccccc12)(NC(C)=O)C(=O)OCC", "resultUnit": "%", "growth inhibition": -3}
{"compound": "O=S(=O)(c1ccccc1)N1CN2CN(C1)CN(S(=O)(=O)c1ccccc1)C2", "resultUnit": "%", "growth inhibition": 0}

I'm hoping you can list growth inhibition for every compound here, please.
1. CC/C(=C(\c1ccccc1)c1ccc(OCC[N+](C)(C)C)cc1)c1ccccc1
2. S=C1C(=Nc2ccccc2)N(c2ccccc2)/C(=N\c2ccccn2)N1c1ccccc1
3. O=C1C(=O)N(c2ccccc2)[C@@]2(c3ccccc3)C(=Nc3ccccc3)OC(c3ccccc3)=C12
4. COc1ccc2c(c1)CCCC(Br)C2=O (stereo not given)
5. O=S1(=O)CCC2=CC(C(F)(F)F)=CC(C(F)(F)F)=CN21
6. O=C(Nn1c(-c2ccccc2)nc2ccccc2c1=O)c1ccc(CS)cc1
7. NC(N)=NS(=O)(=O)c1ccc(Nc2c3ccccc3nc3c(C(=O)NC(CO)(CO)CO)cccc23)cc1

[out]
1. -1
2. -6
3. -3
4. 26
5. 15
6. -9
7. 2

---

- assayRemarks: NCI Yeast Anticancer Drug Screen. Data for the bub3 strain (AID 167)
- particulars: S. cerevisiae bub3 mutant strain, at 50.0 µM
The panel holds about 79,000 compounds, 15% with a hit somewhere; the sample as a whole holds those more often. Activity calls are given as the source filed them. Rule as the data show it: active = growth inhibition above about 70%; inactive = the rest.
Valid outcomes are listed here; reply with one: TRUE (active), FALSE (inactive)

{"molecule": "CCN(CC)CCNc1ccc2nc(C)n3c4ccc(O)cc4c(=O)c1c23", "assignedClass": "FALSE"}
{"molecule": "COc1cc2c(cc1OC)[C@@H](Nc1ccc(C#N)cc1)C1COC(=O)[C@@H]1C2c1cc(OC)c(O)c(OC)c1 (stereo not given in full)", "assignedClass": "TRUE"}
{"molecule": "O=C(c1ccccc1)[C@H]1Nc2ccc(Cl)cc2[C@H]2OCCC[C@@H]12", "assignedClass": "TRUE"}
{"molecule": "Oc1ccc(N=Nc2ccc(Cl)cc2)cc1", "assignedClass": "TRUE"}
{"molecule": "Nc1cc(Cl)ccc1Nc1ccccc1", "assignedClass": "TRUE"}
{"molecule": "O=[N+]([O-])c1ccc2[nH]c3c(-c4ccccc4)nccc3c2c1", "assignedClass": "TRUE"}

[in] # outcome recorded in this test, key = `O=C(Nc1ccc(Cl)cc1)c1cc2cc(N=Nc3ccccc3Cl)ccc2oc1=O`
[out] TRUE

[in] Assay outcome for `CCOC(=O)Nc1ccc(C)c(NC(=O)OCC)c1` : what was it?
[out] FALSE

[in] Give the logged outcome of this assay for the following molecule: `CC(C)CCC[C@@H](C)[C@H]1CC[C@H]2[C@@H]3CC[C@H]4C[C@H](N)CC[C@]4(C)[C@H]3CC[C@]12C`
[out] FALSE

[in] Test call for this molecule, please: O=C(O)c1ccccc1C(=O)OC1CCc2ccccc2C1 (stereo not given)
[out] FALSE

[in] Short answer needed: outcome of this test for `CC1(C)OC(=O)C(=Cc2ccc([N+](=O)[O-])s2)C(=O)O1` ?
[out] TRUE

---

- assayRemarks: NCI Yeast Anticancer Drug Screen. Data for the mlh1 strain (AID 171);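 also: 0% = growth of vehicle-treated control cultures of the same strain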
- particulars: S. cerevisiae mlh1 strain growth inhibition; at 3.7 µM; active compounds read high
Compounds without any hit were thinned out: in the full panel of roughly 79,000, 15% have a hit.
measuredAttribute: growth inhibition (%)
Give bare numbers, in %.

{"compound": "COC(=O)C(=O)c1c(-c2ccc(Cl)c(Cl)c2)[nH]c2[nH]n(-c3ccccc3)c(=O)c2c1=O", "growth inhibition (%)": -3}
{"compound": "O=[N+]([O-])c1ccc(C(c2c[nH]c3ccccc23)c2c[nH]c3ccccc23)cc1", "growth inhibition (%)": 98}
{"compound": "CC1CCC(C2=CSC3CCCCC3N2)CC1 (configuration not stated)", "growth inhibition (%)": 4}

Please state growth inhibition for every compound in the list that follows.
1. CC(C)(CN1CCCCC1)C(=O)CC(SCCS(=O)(=O)O)c1ccccc1 (configuration not stated)
2. CC1CN(/N=C\c2ccc([N+](=O)[O-])o2)C(=O)O1 (configuration not stated)
3. O=C(CCCN1CCC(Nc2ccc(F)cc2)(c2nnnn2C2CCCCC2)CC1)c1ccc(F)cc1
4. CNC(=O)OCc1c(COC(=O)NC)c(C)n(-c2ccc(Br)cc2)c1C

[out]
2
-2
-6
-13

---

- assayRemarks: NCI Yeast Anticancer Drug Screen. Data for the sgs1 mgt1 strain (AID 161);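 also: 0% = growth of cultures given vehicle only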
- particulars: S. cerevisiae sgs1 mgt1 strain, at 5.0 µM (retest, dose inferred, filed as 0.5), active compounds read high
Compounds without any hit were thinned out: in the full panel of roughly 79,000, 15% have a hit.
measuredAttribute: growth inhibition (%)
Answers are plain numbers, in %.

{"compound": "COc1ccc2c3c1OC(C)C31CC(=O)CCC1CC2 (centres undefined)", "reportedMeasurement": 14}
{"compound": "Cc1ccccc1NC(=O)c1c(C)oc2c1C(=O)c1ccccc1C2=O", "reportedMeasurement": -10}
{"compound": "CCCCCCCN1C(=O)c2ccccc2C1=O", "reportedMeasurement": -14}

I would be grateful if you could provide growth inhibition for each of the following entries.
1. CCOP(=O)(OCC)/C(C#N)=C/c1ccc(-c2ccc(F)cc2F)o1
2. CC(C)=CCc1c2c(c(O)c3c(=O)c(-c4ccc(O)c(O)c4)coc13)C=CC(C)(C)O2

[out]
[35, 18]

Batch request: growth inhibition per item, same order as input.
1. CC(C(=O)N1C(=O)N(C(=O)C(C)C(O)c2ccccc2)C2CCCCC21)C(O)c1ccccc1 (centres undefined)
2. O=C(Nn1c(-c2ccccc2)nc2ccccc2c1=O)c1ccc(CS)cc1
3. O=C1c2ccccc2-c2ccc(N=Cc3ccccc3)cc21

[out]
-7
-11
5

Each compound below has a recorded value; state its growth inhibition.
1. c1cc(-c2sc(-c3ccncc3)c(-c3ccncc3)c2-c2ccncc2)ccn1
2. CCCCN(CCCC)c1ccc(N=Nc2ccc(S(=O)(=O)O)cc2)cc1
3. CC1(C2CC2)C(C#N)(C#N)C1(C#N)C#N
4. CN(N=O)C(=O)Nc1ccc(C(=O)O)cc1
5. CCS(=O)(=O)Nc1ccc(Nc2c3ccccc3nc3ccccc23)c(OC)c1
6. Cc1c(Cl)c(C)c(Cl)c(O)c1Cl
7. CNCC(C)CNC

[out]
-5
-48
-48
43
49
2
2

Batch lookup, growth inhibition per entry.
1. ClCCCOc1c(Cl)cc(Cl)cc1Cl
2. NC(=O)NC1C(c2ccccc2)=C1c1ccccc1

[out]
17
-45

---

- assayRemarks: NCI Yeast Anticancer Drug Screen. Data for the rad50 strain (AID 155);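 also: 0% = growth of vehicle-only cultures of the same strain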
- particulars: S. cerevisiae rad50 strain growth inhibition; at 50.0 µM (retest, dose inferred, filed as 5.0); active compounds read high
This is part of a sample that, as a whole, favours compounds with a hit. Of some 79,000 tested, about 15% had one in any assay.
Respond with TRUE for growth inhibition values of 70% and above, FALSE for values below.

Before answering, review these 6 worked examples.
{"compound": "CCOP(=O)(OCC)/C(C#N)=C\\c1cccc2ccccc12", "assignedClass": "TRUE"}
{"compound": "Oc1ccc(C2(c3ccc(O)cc3)CCCC2)cc1", "assignedClass": "TRUE"}
{"compound": "O=C(NCCCCN(CCCNC(=O)C(F)(F)F)Cc1ccccc1)C(F)(F)F", "assignedClass": "TRUE"}
{"compound": "O=C(CN(c1ccccc1)c1ccccc1)n1nnc2ccccc21", "assignedClass": "TRUE"}
{"compound": "Cc1ccc([N+](=O)[O-])c2c(NCCC[N+](C)(C)[O-])c3ccccc3nc12", "assignedClass": "FALSE"}
{"compound": "CN(CCOc1ccc(Cl)cc1)CCOc1ccc(Cl)cc1", "assignedClass": "TRUE"}

[in] Does `CNC(=S)N/N=C(/C)CCC/C(C)=N/NC(=S)NC` have a reported growth inhibition of at least 70%?
[out] FALSE

[in] Reported growth inhibition at or above 70%? `Fc1ccc(Nc2ccc3ccccc3c2)cc1`
[out] FALSE

[in] growth inhibition >= 70% for CCCCCCCCCCCCCCCCCCNc1nc(=O)n(C2CC(OP(=O)(O)OCC3OC(n4cc(F)c(=O)[nH]c4=O)CC3O)C(CO)O2)cc1F (stereo not given) ?
[out] TRUE

[in] Entry C=C(C(=O)OC)N1C(=O)CC(C)C1=O (stereo not given) : is its growth inhibition no less than 70%?
[out] FALSE

[in] Say whether CC1C(c2ccccc2)SC(=N)N1C (stereo not given) shows growth inhibition of 70% or more.
[out] FALSE

[in] Please check the record `O=[N+]([O-])c1ccc2nc(=S)[nH]n2c1` and state if its growth inhibition is at or above 70%.
[out] TRUE

[in] Determine whether measured growth inhibition meets or exceeds 70% for `CN(C)N=Nc1ccc(N(C)C)cc1`
[out] FALSE
